Could you please report measured viability, T/C for the items listed next?
# Tested on: 242566-281-R-J2-PDC complex spheroid viability
# protocol: Anticancer human tumor 242566-281-R-J2-PDC patient-derived pancreatic carcinoma cell line growth inhibition [RAS]
# condition.set: second compound 0.000949 µM; first compound 1 µM; stronger effect = lower value
Give just the numeric value; % need not be written.

Would you mind telling me what viability, T/C value was observed for CCC(CC)c1cc(NC2CCC(N)C2)n2nccc2n1 (stereo unspecified) + CCn1c(-c2cccnc2C(C)OC)c2c3cc(ccc31)N1CCOC(CC(NC(=O)C(C(C)C)N(C)C(=O)C3(F)CCN(C(=O)C#CC(C)(C)N(C)C)CC3)C(=O)N3CCCC(N3)C(=O)OCC(C)(C)C2)C1 ?
97.8

Same read-out for C=CC(=O)N1CCN(c2nc(OCC3CCCN3C)nc3c(F)c(-c4nc(N)cc(C)c4C(F)(F)F)c(Cl)cc23)C(C)C1 (stereo unspecified) + CCn1c(-c2cccnc2C(C)OC)c2c3cc(ccc31)N1CCOC(CC(NC(=O)C(C(C)C)N(C)C(=O)C3(F)CCN(C(=O)C#CC(C)(C)N(C)C)CC3)C(=O)N3CCCC(N3)C(=O)OCC(C)(C)C2)C1 ?
79.2

Ok, now CC(C)NCC(C(=O)N1CCN(c2ncnc3c2C(C)CC3O)CC1)c1ccc(Cl)cc1 (stereo unspecified) + CCn1c(-c2cc(N3CCN(C)CC3)cnc2C(C)OC)c2c3cc(ccc31)-c1csc(n1)CC(NC(=O)C1CC1C)C(=O)N1CCCC(N1)C(=O)OCC(C)(C)C2
95.2

Repeat for the following compound: CCN1CCN(Cc2ccc(Nc3ncc(F)c(-c4cc(F)c5nc(C)n(C(C)C)c5c4)n3)nc2)CC1 + CCn1c(-c2cccnc2C(C)OC)c2c3cc(ccc31)N1CCOC(CC(NC(=O)C(C(C)C)N(C)C(=O)C3(F)CCN(C(=O)C#CC(C)(C)N(C)C)CC3)C(=O)N3CCCC(N3)C(=O)OCC(C)(C)C2)C1
99.6

Would you mind doing Nc1ccn(C2OC(CO)C(O)C2(F)F)c(=O)n1 (stereo unspecified) + CCn1c(-c2cccnc2C(C)OC)c2c3cc(ccc31)N1CCOC(CC(NC(=O)C(C(C)C)N(C)C(=O)C3(F)CCN(C(=O)C#CC(C)(C)N(C)C)CC3)C(=O)N3CCCC(N3)C(=O)OCC(C)(C)C2)C1 as well?
11.2

And the next one, C=CC(=O)N1CCN(c2nc(OCC3CCCN3C)nc3c(F)c(-c4nc(N)cc(C)c4C(F)(F)F)c(Cl)cc23)C(C)C1 (stereo unspecified) + CCn1c(-c2cc(N3CCN(C)CC3)cnc2C(C)OC)c2c3cc(ccc31)-c1csc(n1)CC(NC(=O)C1CC1C)C(=O)N1CCCC(N1)C(=O)OCC(C)(C)C2 ?
59.6

====

# System: 242566-281-R-J2-PDC complex spheroid viability
# protocol: Anticancer human tumor 242566-281-R-J2-PDC cell line growth inhibition [RAS];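 further: spheroids exposed to compound for 7 days before readout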
# condition.set: curve of first compound; second compound 1 µM
pIC50: −log10 of the molar value.
Kindly state pIC50 for each of the entries shown.

Dear colleague, I am looking for the recorded pIC50 of the following compound: CCN1CCN(Cc2ccc(Nc3ncc(F)c(-c4cc(F)c5nc(C)n(C(C)C)c5c4)n3)nc2)CC1 + C=CC(=O)N1CCN(c2nc(OCC3CCCN3C)nc3c(F)c(-c4nc(N)cc(C)c4C(F)(F)F)c(Cl)cc23)C(C)C1
< 6.00

Now try CC1(C)CCC(Nc2ncc(C(F)(F)F)c(-c3c[nH]c4c(P(C)(C)=O)c(C#N)ccc34)n2)CN1 (centres undefined) + C#Cc1c(F)ccc2cc(O)cc(-c3ncc4c(N5CC6CCC(C5)N6)nc(OCC56CCCN5CC(F)C6)nc4c3F)c12 .
< 6.52

Now this one: C=CC(=O)N1CCN(c2nc(OCC3CCCN3C)nc3c(F)c(-c4nc(N)cc(C)c4C(F)(F)F)c(Cl)cc23)C(C)C1 (centres undefined) + C#Cc1c(F)ccc2cc(O)cc(-c3ncc4c(N5CC6CCC(C5)N6)nc(OCC56CCCN5CC(F)C6)nc4c3F)c12
< 6.00

Repeat with Cc1nc(N2CCC3(CC2)COC(C)C3N)c(CO)nc1Sc1ccnc(N)c1Cl (centres undefined) + C=CC(=O)N1CCN(c2nc(OCC3CCCN3C)nc3c(F)c(-c4nc(N)cc(C)c4C(F)(F)F)c(Cl)cc23)C(C)C1
< 5.00

Entry to check: C=CC(=O)Nc1cc(Nc2nccc(-c3cn(C)c4ccccc34)n2)c(OC)cc1N(C)CCN(C)C + C=CC(=O)N1CCN(c2nc(OCC3CCCN3C)nc3c(F)c(-c4nc(N)cc(C)c4C(F)(F)F)c(Cl)cc23)C(C)C1
< 6.00

// same read-out, input: CC1(C)CCC(Nc2ncc(C(F)(F)F)c(-c3c[nH]c4c(P(C)(C)=O)c(C#N)ccc34)n2)CN1 (centres undefined) + C=CC(=O)N1CCN(c2nc(OCC3CCCN3C)nc3c(F)c(-c4nc(N)cc(C)c4C(F)(F)F)c(Cl)cc23)C(C)C1
< 6.52

Another compound: C[C@@H](NC(=O)c1ncnc(N)c1Cl)c1ncc(C(=O)Nc2cc(C(F)(F)F)c(Cl)cn2)s1 + C=CC(=O)N1CCN(c2nc(OCC3CCCN3C)nc3c(F)c(-c4nc(N)cc(C)c4C(F)(F)F)c(Cl)cc23)C(C)C1
< 5.00

Please do the same for NC1c2ccccc2OC12CCN(c1cnc3c(N4CCCc5ncccc54)n[nH]c3n1)CC2 (centres undefined) + C#Cc1c(F)ccc2cc(O)cc(-c3ncc4c(N5CC6CCC(C5)N6)nc(OCC56CCCN5CC(F)C6)nc4c3F)c12 as well.
> 7.50

Field entry: CC(C)NCC(C(=O)N1CCN(c2ncnc3c2C(C)CC3O)CC1)c1ccc(Cl)cc1 (centres undefined) + C=CC(=O)N1CCN(c2nc(OCC3CCCN3C)nc3c(F)c(-c4nc(N)cc(C)c4C(F)(F)F)c(Cl)cc23)C(C)C1
< 5.00

Data origin, for the record: PubChem BioAssay AID2060910
